# tgt: T1, CD300c antigen (11832-H08H, Sino Biological) (human, UniProt Q08708 21-183)
# T1 construct: Bought antigen; also called CD300c protein; CD300 antigen-like family member C
# T1 sequence (looked up): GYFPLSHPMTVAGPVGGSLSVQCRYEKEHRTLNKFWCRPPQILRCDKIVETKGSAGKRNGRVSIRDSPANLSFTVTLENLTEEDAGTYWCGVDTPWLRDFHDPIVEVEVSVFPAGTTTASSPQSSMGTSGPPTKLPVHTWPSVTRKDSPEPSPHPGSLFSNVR
# experiment_description: binding ELISA, plate coated with CD300c antigen (8 µg/mL), HRP anti-Fc IgG detection
Reported EC50 values follow for various binders
# number only, unit µg/mL dropped from output

>>> value_observed("CL5 (antibody, V domains shown, also called anti-CD300c monoclonal antibody CL5; CB301 antibody CL5) VH: RVQLLESGGGLVQPGGSLRLSCAASGFTFSSYAMHWVRQAPGKGLEWVSSISGGGYGTYYADSVKGRFTISRDNSKNTLYLQMNSLRAEDTAVYYCARSTVWAFDIWGQGTLVTVSS VL: QSVLTQPPSASGTPGQRVTISCSGNNIGSKSVHWYQQLPGTAPKLLIYDVSKRPSERPDRFSGSKSGTSASLAISDLRSEDEADYYCQSFDSSGTWIFGGGTKLTVL")
0.032
>>> value_observed("SK17 (antibody, V domains shown, also called anti-CD300c monoclonal antibody SK17; CB301 antibody SK17) VH: EVQLLESGGGLVQPGGSLRLSCAASGFTFSSYYWSWVRQAPGKGLEWVSTITGSGGSTDYANSVKGRFTISRDNSKNTLYLQMNSLRAEDTAVYYCATGGGIFDYWGQGTLVTVSS VL: EIVLTQSPGTLSLSPGERATLSCQASQTISNYLNWYQQKPGQAPRLLIYDASNRATGIPDRFSGSGSGTDFTLTISRLEPEDFAVYYCQQYNSYPPSFGQGTKVEIK")
0.054

Could you now look at the following binder, please?
Data request, read-out EC50, for SK11 (antibody, V domains shown, also called anti-CD300c monoclonal antibody SK11; CB301 antibody SK11) VH: RVQLLESGGGLVQPGGSLRLSCAASGFTFSTYGMHWVRQAPGKGLEWVSAISGSGGSTYYADSVKGRFTISRDNSKNTLYLQMNSLRAEDTAVYYCARGLSGLDYWGQGTLVTVSS VL: EIVLTQSPGTLSLSPGERATLSCRSSQGITNYLAWYQQKPGQAPRLLIYDASNRATGIPDRFSGSGSGTDFTLTISRLEPEDFAVYYCQQSYSTPLTFGQGTKVEIK 0.052
